Each entry below lists one item and its recorded EC50 value.
Molecular target: T1, mouse Claudin-6 (CLDN6) (mouse, UniProt Q9Z262 1-219)
T1 construct: whole, on cells; GFP fusion on engineered HEK293T cells; also called Mouse CLDN6; murine CLDN6
T1 sequence (looked up): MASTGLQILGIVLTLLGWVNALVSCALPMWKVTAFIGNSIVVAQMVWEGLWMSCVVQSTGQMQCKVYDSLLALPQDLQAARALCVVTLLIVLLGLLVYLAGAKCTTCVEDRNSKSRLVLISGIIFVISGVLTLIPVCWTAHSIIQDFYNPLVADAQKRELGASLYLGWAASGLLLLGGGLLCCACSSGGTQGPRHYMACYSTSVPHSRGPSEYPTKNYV
Experiment: FACS titration of labelled mAb on HEK293T mouse CLDN6-mGFP cells
Method: CLDN6 antibodies were tested from 0.32 nM to 1000 nM (serial dilution 1:5, 6 points) in a 50 μl volume with 150,000 cells system. […] For each type of cell tested and for each mAb, cells were detached from the surface of the culture flasks by EDTA (instead of trypsin) in order to protect the cell surface proteins. The detached cells were then incubated with Alexa Fluor®-labeled CLDN6 mAbs for 30 min in the dark on ice at a pre-determined concentration. […]

Consider the worked cases shown below.
binder	EC50
AB4 (antibody, V domains shown, full-length IgG (ExpiCHO)) VH: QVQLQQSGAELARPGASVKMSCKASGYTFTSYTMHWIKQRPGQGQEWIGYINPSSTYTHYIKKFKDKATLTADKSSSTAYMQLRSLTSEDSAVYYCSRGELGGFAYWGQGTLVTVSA VL: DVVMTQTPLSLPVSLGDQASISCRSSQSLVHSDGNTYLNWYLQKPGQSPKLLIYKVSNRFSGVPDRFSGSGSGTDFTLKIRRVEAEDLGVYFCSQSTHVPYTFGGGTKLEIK	≥ 5 µM
AB6 (antibody, V domains shown, full-length IgG (ExpiCHO)) VH: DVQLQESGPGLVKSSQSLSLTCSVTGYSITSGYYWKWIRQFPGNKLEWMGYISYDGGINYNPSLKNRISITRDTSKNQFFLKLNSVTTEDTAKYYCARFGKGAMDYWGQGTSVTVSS VL: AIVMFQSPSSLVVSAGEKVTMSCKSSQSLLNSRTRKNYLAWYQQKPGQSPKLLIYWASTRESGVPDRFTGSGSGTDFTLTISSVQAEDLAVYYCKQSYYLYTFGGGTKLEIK	2.22 µM

Query binder follows.
### Prompt Entry AB8 (antibody, V domains shown, full-length IgG (ExpiCHO)) VH: QVQLQQSGAELARPGASVKMSCKASGYTFTTYTMHWLKQRPGQGLEWIGYINPRSGYSNYNQKFKDKATLTADKSSNTAYMQLNTLTSEDSKVYYCSRGELGGFAYWGQGTLVTVSA VL: DVVMTQTPLSLPVSLGDQASISCRSSQSLVHSDGNTYLYWYLQKPGQSPKLLIYKVSNRFSGVPDRFSGSGSGTDFTLKISRVEAEDLGVYFCSQSTHVPYTFGGGTKLEIK has what EC50?
### Response ≥ 5 µM
